Tested on: Septoria nodorum
Method: Test F: wheat glume blotch on wheat seedlings, sprayed the day before inoculation, visual disease rating
Assay type: in vivo
Condition: 200 ppm; 100 = 100% disease control, 0 = no control
Readout Label: Test F disease control rating (%)
One number for each entry, in %.

The cases that follow already have their Test F disease control rating on record.
>>> reading("Cc1nc(Cl)n(-c2ccc(Cl)c(F)c2)c1-c1ccccn1 [compound 264]")
0
>>> reading("Cc1nc(Cl)c(-c2c(F)cccc2Cl)n1-c1ccc(Cl)c(F)c1 [compound 244]")
99
>>> reading("Fc1cc(-n2c(Cl)nc(Cl)c2-c2c(F)cccc2F)ccc1Cl [compound 225]")
0
>>> reading("CCn1nc(Br)c(-c2c(F)cccc2F)c1-c1ccc(Cl)cc1 [compound 165]")
0
>>> reading("COc1ccc(F)c(-c2c(Cl)nc(Br)n2-c2cccc(F)c2)c1F [compound 278]")
100
>>> reading("Cc1ncn(-c2ccc(Cl)c(F)c2)c1-c1ccccn1 [compound 251]")
0
>>> reading("Fc1ccc(-c2c(Cl)ncn2-c2ccc(Cl)c(F)c2)c(Cl)c1 [compound 191]")
0
>>> reading("CSc1ccc(F)c(-c2c(Cl)nc(Br)n2-c2ccc(Cl)cc2)c1F [compound 231]")
100
>>> reading("Fc1ccc(-c2c(Cl)nc(Br)n2-c2ccc(Cl)c(F)c2)c(Cl)c1 [compound 202]")
98
>>> reading("CSc1ccc(F)c(-c2c(Cl)ncn2-c2ccc(Cl)cc2)c1F [compound 215]")
0

Please go through the list and note Test F disease control rating for each compound.
1. Cc1ccc(-n2cnc(Cl)c2-c2c(F)ccc(F)c2Cl)cc1 [compound 177]
2. Fc1cccc(F)c1-c1c(Cl)nc(Cl)n1-c1cccc(Cl)c1 [compound 222]
3. Fc1ccc(-n2c(Cl)nc(Cl)c2-c2c(F)cc(F)cc2F)cc1 [compound 147]
4. Cc1ccc(-n2c(Br)nc(Cl)c2-c2ccc(F)cc2Cl)cc1 [compound 184]
5. COc1cc(F)c(-c2c(Cl)nc(Cl)n2Cc2ccc(Cl)cc2)c(F)c1 [compound 284]
6. Cc1nc(Cl)c(Cc2c(F)cccc2F)n1-c1ccc(Cl)cc1 [compound 258]

1. 0
2. 0
3. 82
4. 0
5. 92
6. 42

Please go through the list and note Test F disease control rating for each compound.
1. Fc1ccc(-c2c(Cl)nc(Cl)n2-c2ccc(Cl)c(F)c2)c(Cl)c1 [compound 229]
2. Cc1ccc(-n2c(C)nc(Cl)c2-c2c(F)ccc(F)c2F)cc1C [compound 238]
3. COc1cc(Cl)cc(F)c1-c1c(Cl)nc(C)n1-c1ccc(Cl)cc1 [compound 149]

1: 0; 2: 0; 3: 98

Please go through the list and note Test F disease control rating for each compound.
1. Cc1ccc(-n2cnc(Cl)c2-c2c(F)cccc2Cl)cc1 [compound 181]
2. COc1cc(F)c(-c2c(C)ncn2-c2ccc(Cl)nc2)c(F)c1 [compound 254]
3. Cc1nc(Cl)c(-c2c(F)cccc2F)n1-c1cccc(Cl)c1 [compound 236]
4. Fc1ccc(-n2cnc(Cl)c2-c2ccc(F)cc2Cl)cc1 [compound 178]

[0, 0, 99, 0]

Please go through the list and note Test F disease control rating for each compound.
1. CSc1ccc(F)c(-c2c(Cl)nc(C)n2-c2ccc(Cl)cc2)c1F [compound 235]
2. Fc1ccc(-n2c(Br)nc(Cl)c2-c2ccc(F)cc2Cl)cc1 [compound 182]
3. COc1ccc(F)c(-c2c(Cl)ncn2Cc2ccc(Cl)cc2)c1F [compound 270]
4. COc1cc(F)c(-c2c(N(C)C)ncn2Cc2ccc(C)cc2)c(F)c1 [compound 275]
5. COc1cc(F)c(-c2c(Cl)nc(I)n2-c2ccc(Cl)c(F)c2)c(F)c1 [compound 241]

92
73
98
0
100

====

Test system: Septoria tritici
Method: Test G: wheat leaf blotch on wheat seedlings, sprayed the day before inoculation, visual disease rating
Assay type: in vivo
Condition: 200 ppm; 100 = 100% disease control, 0 = no control relative to controls
Assign Test G disease control rating to each entry below.
Numbers only, in %.

The cases that follow already have their Test G disease control rating on record.
>>> reading("Fc1ccc(F)c(-c2c(Cl)ncn2-c2ccc(Cl)cc2)c1Cl [compound 74]")
98
>>> reading("COc1cc(F)c(-c2c(C)nnn2-c2ccc(Cl)cc2)c(F)c1 [compound 628]")
100

Please go through the list and note Test G disease control rating for each molecule.
1. Cc1nn(C)c(-c2c(Cl)cccc2Cl)c1-c1ccc(Cl)cc1 [compound 87]
2. Fc1ccc(-n2cnc(Br)c2-c2c(F)ccc(F)c2F)cc1 [compound 332]
3. Cc1nc(Br)c(Cc2c(F)cc(F)cc2F)n1-c1cc(Cl)cc(Cl)c1 [compound 541]
4. COc1ccc(-c2c(Cl)ncn2-c2ccc(F)cc2)c(Cl)c1 [compound 726]
5. Cc1nc(Cl)c(-c2c(F)cccc2F)n1-c1cc(F)cc(F)c1 [compound 73]

[84, 95, 0, 99, 87]

Please go through the list and note Test G disease control rating for each molecule.
1. Cc1nc(Cl)c(-c2c(F)cc(F)cc2F)n1-c1cccc(OC(F)(F)F)c1 [compound 611]
2. COc1ccc(F)c(-c2c(Cl)nc(C)n2-c2cccc(OC(F)F)c2)c1F [compound 426]
3. COc1ccc(F)c(-c2c(Cl)ncn2-c2ccc(C#N)cc2)c1F [compound 527]
4. COc1ccc(F)c(-c2c(Cl)nc(C)n2-c2ccc(Cl)c(C)c2)c1F [compound 425]
5. Cc1nc(Br)n(-c2ccc(Cl)nc2)c1-c1c(F)cccc1F [compound 682]
6. N#Cc1ccc(F)c(-c2c(Cl)ncn2-c2ccc(F)cc2)c1F [compound 656]

1. 81
2. 100
3. 95
4. 100
5. 100
6. 99

Please go through the list and note Test G disease control rating for each molecule.
1. COc1ccc(F)c(-c2c(Cl)nc(Br)n2-c2ccc(Cl)cc2)c1Cl [compound 501]
2. Fc1ccc(-c2c(Cl)nc(Br)n2-c2ccc(Cl)cc2)c(Cl)c1 [compound 51]
3. COc1cc(F)c(-c2c(Cl)nc(Br)n2-c2ccc(Cl)nc2)c(F)c1 [compound 729]
4. Cc1ncn(-c2ccc(Cl)cn2)c1-c1c(F)cccc1F [compound 320]
5. Fc1ccccc1-n1c(Br)nc(Cl)c1-c1c(F)cccc1F [compound 58]
6. CCc1cccc(-n2c(Br)nc(Cl)c2-c2c(F)ccc(OC)c2F)c1 [compound 398]

95
94
99
100
79
96

====

Test system: Puccinia recondita f. sp. tritici
Method: Test H: wheat leaf rust, test suspension sprayed after inoculation of wheat seedlings, visual disease rating
Assay type: in vivo
Condition: 200 ppm; 100 = 100% disease control, 0 = no control relative to controls
Quick rule for you: Test H disease control rating under 60% gets t, anything else gets f.

>>> class_assignment("Cc1nc(Br)c(Cc2c(F)cc(F)cc2F)n1-c1ccc(Cl)cc1")
"t"

Please determine if `Clc1ccc(-c2c(Cl)nc(Cl)n2Cc2cccc(Cl)c2)cc1` is below 60% in terms of Test H disease control rating.
t

Likewise for `Cc1nc(C)n(-c2ccc(F)cc2Cl)c1-c1ccc(Cl)cc1` ?
t

Likewise for `CNc1nc(Cl)c(-c2c(F)cc(OC)cc2F)n1-c1ccc(Cl)cc1` ?
t

Likewise for `COc1cc(F)c(-c2c(Cl)ncn2-c2cccc(OC(F)(F)F)c2)c(F)c1` ?
t

====

Assign Test G disease control rating to each entry below.
Tested on: Septoria tritici
Method: Test G: wheat leaf blotch on wheat seedlings, sprayed the day before inoculation, visual disease rating
Assay type: in vivo
Condition: 200 ppm; 100 = 100% disease control, 0 = no control relative to controls
Answers are plain numbers, in %.

The cases that follow already have their Test G disease control rating on record.
>>> reading("COc1ccc(F)c(-c2c(Cl)nc(C)n2-c2ccc(Cl)cc2)c1Cl")
97
>>> reading("COc1cc(F)c(-c2c(Cl)nc(Cl)n2-c2ccc(OC(F)F)cc2)c(F)c1")
97
>>> reading("Fc1cccc(F)c1-c1c(Cl)nc(Br)n1-c1ccc(Br)cc1")
94
>>> reading("COc1cc(F)c(-c2c(Cl)nnn2-c2ccc(Cl)cc2)c(F)c1")
100

Please go through the list and note Test G disease control rating for each compound.
1. Fc1cccc(F)c1-c1c(Br)nc(Br)n1-c1cccnc1Cl
2. COc1cc(OC)c(Br)c(-n2c(C)nc(Br)c2Cc2ccc(F)cc2F)c1Br
3. Cc1ncn(-c2ccc(Cl)c(F)c2)c1-c1cncc(Br)c1
4. COc1ccc(F)c(-c2c(Cl)ncn2-c2ccc(I)cc2)c1F
5. COc1cc(OC)cc(-n2c(Cc3ccc(F)cc3F)cnc2C)c1
6. Cc1nc(Cl)n(-c2ccc(Cl)c(F)c2)c1-c1c(F)ccc(F)c1F
7. COc1cc(F)c(-c2c(Cl)ncn2-c2ccc(Cl)cc2)c(Cl)c1
8. Fc1cc(-n2c(Cl)nc(Cl)c2-c2ccncc2F)ccc1Cl

1. 98
2. 0
3. 38
4. 98
5. 59
6. 91
7. 92
8. 95
